Tested on: HIV-1MDR/JSL(R5)
Assay Procedure: microbe, parasite or virus in culture
Type: cell-based
Condition Context: Human immunodeficiency virus 1
pEC50: −log10 of the molar value.

Compound	pEC50
CC(C)CN(C[C@@H](O)[C@H](Cc1ccccc1)NC(=O)O[C@H]1CCOC1)S(=O)(=O)c1ccc(N)cc1 [APV, amprenavir, reference compound]	6.57
CC(C)CN(C[C@@H](O)[C@H](Cc1ccccc1)NC(=O)O[C@H]1CO[C@H]2OCC[C@H]21)S(=O)(=O)c1ccc(N)cc1 [Darunavir, darunavir, reference compound]	8.00

----------
Test system: HIV-1MDR/B(X4)
Assay Procedure: microbe, parasite or virus in culture
Type: cell-based
Condition Context: PHA-PBMs, p24 Gag production; mean ± 1 SD
As shown below, each of these compounds has a reported EC50 value.

Compound	Subject Of Test	Measure Unit	EC50
CC(C)CN(C[C@@H](O)[C@H](Cc1ccccc1)NC(=O)O[C@H]1CO[C@H]2OCC(F)(F)[C@H]21)S(=O)(=O)c1ccc(N)cc1	HIV-1MDR/B(X4)	nM	11
COc1ccc(S(=O)(=O)N(CC(C)C)C[C@@H](O)[C@H](Cc2ccccc2)NC(=O)OC2CO[C@H]3OCC(F)(F)[C@@H]23)cc1 (some centres unmarked)	HIV-1MDR/B(X4)	nM	14

Origin of measurements: paper PMC4419590
